molecular target: Ubiquitin carboxyl-terminal hydrolase 7 (Homo sapiens); test: Ubiquitin-specific protease 7 DUB inhibitors, concentration-effect, biochemical, validation of primary hits (AID 1645861); conditions: purified USP7, Ub-rhodamine cleavage fluorescence, 60 min
Activity calls are given as the source filed them.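 Rule for the calls: active = compounds whose peak USP7 inhibition across the dose series reached 30% or more; inactive = the rest.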
Hi! Could you answer with just one of these? active, inactive

// outcome(item) with item = Cc1cc(C(F)(F)F)n2nc(C3CCN(C(=O)c4cnn(C)c4C)C3)cc2n1 (centres undefined)
inactive

Same thing, different compound: "O=C(Nc1ccccc1F)c1nc(-c2cn(-c3ccc(F)cc3)nn2)no1"
inactive

Same thing, different compound: "COc1ccccc1-c1nc(-c2cn(-c3ccc(F)cc3)nn2)no1"
active

Same thing, different compound: "COc1cc(NC(=O)Cn2c(=O)n(-c3ccc(CC(=O)NCc4ccco4)cc3)c(=O)c3ccccc32)cc(OC)c1"
inactive

Same thing, different compound: "CCn1cc2c(n1)c(=O)n(Cc1ccccc1)c(=O)n2CC(=O)Nc1ccc(C(C)C)cc1"
inactive

Same thing, different compound: CCCCCCCCCC(CCCCCCCCCC(=O)O)O[C@H]1O[C@@H](COC(C)=O)[C@H](O)[C@@H](OC(=O)CC(=O)O)[C@H]1O (some centres undefined)
inactive

Same thing, different compound: O=C(O)c1ccccc1C(=O)Nc1ccc(SC(C(=O)Nc2cccc(Cl)c2)c2ccccc2)cc1 (centres undefined)
inactive

Same thing, different compound: "N#Cc1ccccc1NC(=O)c1cc2c(s1)-c1ccccc1S(=O)(=O)C2"
inactive

Same thing, different compound: "Cc1ccc(-c2cc(C(F)F)n3ncc(C(=O)Nc4ccc(O)cc4)c3n2)cc1"
inactive
